# Procedure Details: Primary qHTS for delayed death inhibitors of the malarial parasite plastid, 96 hour incubation
# Condition Info: P. falciparum luciferase reporter growth; series mostly up to 28.7 µM
Among all 320,000 compounds or so, about 22,000 (6.9%) were called active. Another 27% or so got no clear call; they are omitted. The call rests on the fitted dose curve; in most records, active means well fitted inhibition curve with a large enough effect; inconclusive means small, poorly fitted or top-dose-only effect, or another doubt; inactive means no such curve, though single readings can be large or run the other way. The full list was thinned out, with actives kept by preference.
Outcome codes: active, inactive

# Compound, Assigned Class
rows = [
    ("CS(=O)(=O)c1ccc(C(=O)OCC(=O)NNC(=O)COc2ccc(Cl)cc2)cc1", "inactive"),
    ("O=C(C1CCN(S(=O)(=O)c2ccc(Br)s2)CC1)N1CCN(C2CCCCC2)CC1", "active"),
    ("O=C(O)/C=C/c1ccc(OCCCF)cc1", "inactive"),
    ("CCOC(=O)CSc1nc2c(c(=O)n(C)c(=O)n2C)n1Cc1ccccc1F", "inactive"),
    ("Cc1ccc(CN(CC(=O)NCC2CCCO2)S(=O)(=O)c2ccc(C)cc2)cc1 (stereo not drawn)", "inactive"),
    ("COc1ccc(NC(=O)CN(C)C(=O)c2ccc(COc3ccccc3)o2)cc1", "inactive"),
    ("Cc1ccccc1N1CCN(S(=O)(=O)c2ccc3ccccc3c2)CC1", "inactive"),
    ("COC(=O)CSc1ncnc2c1cnn2-c1ccc(C)cc1C", "inactive"),
    ("Cc1ccc(C(=O)N2CCN(C3CCCCC3)CC2)s1", "inactive"),
    ("CCCCSc1nc2ccccc2[nH]1", "inactive"),
    ("Cn1cc([N+](=O)[O-])c(C(=O)Nc2ccc3c(c2)OCCO3)n1", "inactive"),
    ("CCOc1ccc(N(CC(=O)NCCOc2ccccc2OC)S(=O)(=O)c2ccccc2)cc1", "inactive"),
    ("CCCCN(CCCC)CCNC(=O)CN1C(=O)COc2ccc(S(=O)(=O)N3CCOCC3)cc21", "inactive"),
    ("CN=C1S/C(=C\\c2ccc(Sc3ccc(Cl)cc3)o2)C(=O)N1C", "inactive"),
    ("Cn1c(=O)c2c(nc(SCC(=O)Nc3ccccc3N3CCCCC3)n2C)n(C)c1=O", "inactive"),
    ("Cc1cc(/C=N/Nc2ccc([N+](=O)[O-])cn2)c(C)n1-c1cccc(C(=O)O)c1", "inactive"),
    ("Cc1c(S(=O)(=O)NCc2ccccc2)c(=O)n(C)c(=O)n1C", "inactive"),
    ("C[N+](C)(C)CCNC(=O)c1c(O)c2c([nH]c1=O)CCCC2", "inactive"),
]

====

# Procedure Details: Primary qHTS for delayed death inhibitors of the malarial parasite plastid, 96 hour incubation
# Condition Info: P. falciparum luciferase reporter growth; series mostly up to 28.7 µM
Out of some 320,000 compounds screened, about 22,000 (6.9%) were called active. Inconclusive results (about 27%) are left out. The call rests on the fitted dose curve; in most records, active means well fitted inhibition curve with a large enough effect; inconclusive means small, poorly fitted or top-dose-only effect, or another doubt; inactive means no such curve, though single readings can be large or run the other way. Shown is part of a subset that was picked to be rich in actives.
Outcome codes: true (active), false (inactive)

# Molecule, Assigned Class
data = [
    ("Cc1ccc(NC(=O)Cc2nnc(SCC(=O)Nc3nncs3)n2C)cc1", "false"),
    ("CCOC(=O)c1ccc(NC(=O)CCn2c(=O)oc3ccccc32)cc1", "false"),
    ("Cc1nc(COc2cccc(Cl)c2)sc1C(=O)/C=C/N(C)C", "false"),
    ("COc1ccc2cc(C(=O)C3CCCN(C(=O)c4sc(C)nc4C)C3)ccc2c1 (configuration not stated)", "true"),
    ("COC(=O)c1cnc(Nc2cc(C)ccc2OC)c2ccccc12", "false"),
    ("Cc1nn2c(=O)cc(COC(=O)c3ccc(NC(=O)C(C)(C)C)cc3)nc2s1", "false"),
    ("COc1ccc2[nH]cc(CCN3C(=O)c4ccc(C(=O)O)cc4C3=O)c2c1", "false"),
    ("Cn1c(=O)c2c(nc(N3CCCCCC3)n2CC(=O)c2ccc(Br)cc2)n(C)c1=O", "false"),
    ("O=C(c1cccs1)N1CCN(Cc2ccc3c(c2)OCO3)CC1", "false"),
    ("COc1ccc(CNC(=O)CN(C(=O)c2csnn2)c2cnc3ccccc3c2)cc1", "false"),
    ("COc1ccc(C(=O)C2CCCN(C(=O)c3cnsn3)C2)c(C)c1 (configuration not stated)", "false"),
    ("Cc1cc(=O)oc2cc(OC(C)C(=O)NCCc3ccc(S(N)(=O)=O)cc3)ccc12 (configuration not stated)", "false"),
]

Data provenance: PubChem BioAssay AID504834
